Hello, the source for this data is patent US20220323406A1, in case you need it.

# Test system: ENR+CD organoids
# method.notes: Primary screen: ATP (CellTiter-Glo 3D, CTG) cell number/viability, 2.5-D 384-well ENR+CD organoids;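 also: compounds given at plating and again on day 3 over a 6-day differentiation from ENR+CV stem-cell-enriched precursors, ATP measured on day 6, plate median as control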
# experimental.context: primary screen, dose 2.00 uM
Lab note: compare Z.CTG (standard z score) with 0.2, writing true (1) if less and false (0) if equal or more.

Please review the entries below; each comes with its answer.
compound=O=C1NC(=O)/C(=C/c2ccc(-c3ccc(F)cc3O)o2)S1 class="true (1)"
compound="COc1nc(C)cnc1NS(=O)(=O)c1cccnc1-c1ccc(-c2nnco2)cc1 [Zibotentan (ZD4054)]" class="true (1)"
compound=O=c1cc(-c2cccc3c2Sc2ccccc2S3)oc(N2CCOCC2)c1 class="false (0)"
compound="CCCCNc1ncc(-c2ccc(CN3CCOCC3)cn2)c(NC2CCC(O)CC2)n1 (stereo not shown)" class="false (0)"
compound=O=C(Nc1ccccc1)c1cc([N+](=O)[O-])ccc1Cl class="false (0)"

Exercise: Could you please tell me whether Z.CTG (standard z score) recorded for Cc1cccc(-c2nn3c(c2-c2ccnc4ccc(C(N)=O)cc24)CCC3)n1 is less than 0.2?
Solution: true (1)

Exercise: Could you please tell me whether Z.CTG (standard z score) recorded for Cc1cc(-c2ccc(CC(=O)Nc3ccc(-c4cccnc4)cc3)cc2)ccn1 is less than 0.2?
Solution: true (1)

Exercise: Could you please tell me whether Z.CTG (standard z score) recorded for c1ccc(NCc2ccc(CNc3ccccn3)cc2)nc1 is less than 0.2?
Solution: true (1)

Exercise: Could you please tell me whether Z.CTG (standard z score) recorded for O=C(c1cn(Cc2cncn2Cc2ccc(Br)cc2)cc1-c1cccc2ccccc12)N1CCOCC1 is less than 0.2?
Solution: true (1)

Exercise: Could you please tell me whether Z.CTG (standard z score) recorded for Cc1cc(C)nc(NS(=O)(=O)c2ccc(NC(=S)NC(=O)COc3ccc(Br)cc3Cl)cc2)n1 is less than 0.2?
Solution: true (1)
